Would you kindly list viability at 48 h, 1 µM for each of these molecules?
Test: MTT cell viability assay, compounds at 5, 1 and 0.2 μM, 48 hours
Assay type: cell-based
Settings: human, A549 tumor cells, 1 μM
Protocol: MTT assay is used to determine cell proliferation, percent of viable cells, and cytotoxicity. […] To each of the 96 well plates containing A549 and a control, 5, 1, and 0.2 μM of the exemplary compounds 1-200 were add. […] Cell viability was measured by adding MTT (Sigma) at 5 mg/ml for 4 h to the cells and then removing the medium and resuspending each well in 50 μl DMSO to solubilize the crystals. The 96-well plates were read on a plate-scanning spectrophotometer (BioTek) at an absorbance of 560 nm. […]

# example entries with known answers
CCOc1cc(Oc2cccc(-c3nnc(Nc4cccc(C(F)(F)F)c4)[nH]3)c2)nc(N)n1 [Compound 57]: > 70%
COc1nccc(Oc2cccc(-c3nnc(Nc4cccc(C(F)(F)F)c4)[nH]3)c2)n1 [Compound 88]: > 70%
CSc1nc(N)cc(Oc2ccc(-c3nnc(Nc4cccc(C#N)c4)[nH]3)cc2)n1 [Compound 128]: > 70%

Report viability at 48 h, 1 µM for each item below.
1. CCc1cccc(Nc2nnc(-c3ccc(Oc4cc(N)nc(SC)n4)cc3)[nH]2)c1 [Compound 122]
2. CSc1nc(N)cc(Oc2ccc(-c3nnc(Nc4cccc(C(F)(F)F)c4)s3)cc2)n1 [Compound 44]
3. Cc1ccc(-c2nnc(Nc3cccc(C(F)(F)F)c3)[nH]2)cc1Oc1cccnc1 [Compound 177]
4. CCc1cc(Oc2cccc(-c3nnc(Nc4cccc(C(F)(F)F)c4)[nH]3)c2)nc(N)n1 [Compound 94]
5. FC(F)(F)c1cccc(Nc2nnc(-c3ccc(Oc4ncnc5[nH]ccc45)cc3)s2)c1 [Compound 45]

1. > 70%
2. > 70%
3. > 70%
4. > 70%
5. 50 to 70%

Report viability at 48 h, 1 µM for each item below.
1. CSc1nc(N)cc(Oc2ccc(-c3nnc(Nc4cccc(C(F)(F)F)c4)[nH]3)c(Cl)c2)n1 [Compound 112]
2. CCc1cc(Oc2ccc(-c3nnc(Nc4cccc(C(F)(F)F)c4)[nH]3)cc2)nc(N)n1 [Compound 77]
3. Cc1nc(N)cc(Oc2ccc(-c3nnc(Nc4cccc(C(F)(F)F)c4)[nH]3)cc2)n1 [Compound 82]
4. CSc1nc(N)cc(Oc2ccc(-c3nnc(Nc4cc(C)ccc4F)[nH]3)cc2)n1 [Compound 121]
5. Nc1cc(Oc2ccc(-c3nnc(Nc4cccc(C(F)(F)F)c4)o3)cc2)ccn1 [Compound 59]
6. COc1ccc2c(Oc3cccc(-c4nnc(Nc5cccc(C(F)(F)F)c5)[nH]4)c3)ccnc2c1 [Compound 22]

> 70%
50 to 70%
> 70%
50 to 70%
> 70%
> 70%

Report viability at 48 h, 1 µM for each item below.
1. FC(F)(F)c1cccc(Nc2nnc(-c3cccc(Oc4ccncc4C(F)(F)F)c3)[nH]2)c1 [Compound 20]
2. CN(C)c1cc(Oc2ccc(-c3nnc(Nc4cccc(C(F)(F)F)c4)[nH]3)cc2)c2ccccc2n1 [Compound 190]

1: > 70%; 2: > 70%

---

assay: MTT cell viability assay, compounds at 5, 1 and 0.2 μM, 48 hours; format: cell-based; conditions: human, A549 tumor cells, 1 μM compound
measuredAttribute: viability at 48 h, 1 µM

# example entries with known answers
COc1ccc2c(Oc3ccc(-c4cnc(Nc5cccc(C(F)(F)F)c5)[nH]4)cc3)ccnc2c1: > 70%
COc1ccc2c(Oc3cc(-c4nnc(Nc5cccc(C(F)(F)F)c5)[nH]4)ccc3C)ccnc2c1: > 70%
COc1ccc2c(Oc3ccc(Nc4nnc(-c5cccc(Cl)c5)[nH]4)cc3)ccnc2c1: > 70%
CSc1nc(N)cc(Oc2ccc(-c3cnc(Nc4cccc(C(F)(F)F)c4)[nH]3)cc2)n1: < 50%

API: the following record is the query input.
What does the record list as viability at 48 h, 1 µM for `CN(C)c1cc(Oc2ccc(-c3nnc(Nc4cccc(C(F)(F)F)c4)[nH]3)cc2)c2ccccc2n1` ?
> 70%

---

experiment: MTT cell viability assay, compounds at 5, 1 and 0.2 μM, 48 hours; format: cell-based; conditions: human, A549 tumor cells, 5 μM
Would you kindly list viability at 48 h, 5 µM for each of these compounds?

CSc1nc(N)cc(Oc2ccc(-c3nnc(Nc4ccc5c(c4)CCC5)[nH]3)cc2)n1: < 50%
COc1nc(N)cc(Oc2ccc(-c3nnc(Nc4cccc(C(F)(F)F)c4)[nH]3)cc2)n1: < 50%
CSc1nc(N)cc(Oc2ccc(-c3nnc(Nc4ccc(Cl)c(C(F)(F)F)c4)[nH]3)cc2)n1: < 50%

Report viability at 48 h, 5 µM for each item below.
1. CC(C)(C)Sc1nc(N)cc(Oc2ccc(-c3nnc(Nc4cccc(C(F)(F)F)c4)[nH]3)cc2)n1
2. FC(F)(F)c1cccc(Nc2nnc(-c3cccc(Oc4cncnc4)c3)[nH]2)c1
3. CCc1nc(N)cc(Oc2ccc(-c3nnc(Nc4cccc(C(F)(F)F)c4)[nH]3)cc2)n1

< 50%
> 70%
< 50%

---

assay: MTT cell viability assay, compounds at 5, 1 and 0.2 μM, 48 hours; format: cell-based; details: human, A549 tumor cells, 1 μM
measuredAttribute: viability at 48 h, 1 µM

# example entries with known answers
Nc1cc(Oc2ccc(-c3nnc(Nc4cccc(C(F)(F)F)c4)[nH]3)cc2)ncn1 [Compound 2]: > 70%
FC(F)(F)c1cccc(Nc2nnc(-c3ccc(Oc4cc(Cl)ccn4)cc3)[nH]2)c1 [Compound 5]: > 70%
FC(F)(F)c1cccc(-c2nnc(Nc3ccc(Oc4cccnc4)cc3)[nH]2)c1 [Compound 174]: > 70%
Fc1ccc2c(Oc3ccc(-c4nnc(Nc5cccc(C(F)(F)F)c5)[nH]4)cc3)ccnc2c1 [Compound 186]: > 70%
CSc1nc(N)cc(Oc2cccc(-c3nnc(Nc4cccc(C(F)(F)F)c4)[nH]3)c2)n1 [Compound 14]: 50 to 70%

Report viability at 48 h, 1 µM for each item below.
1. Cc1cc(Oc2ccc(-c3nnc(Nc4cccc(C(F)(F)F)c4)[nH]3)cc2)ccn1 [Compound 74]
2. COc1ccc2nccc(Oc3ccc(-c4nnc(Nc5cccc(C(F)(F)F)c5)[nH]4)cc3)c2c1 [Compound 185]
3. FC(F)(F)c1cccc(Nc2nnc(-c3cccc(Oc4nccc5ccccc45)c3)[nH]2)c1 [Compound 166]

< 50%
> 70%
> 70%

---

assay: MTT cell viability assay, compounds at 5, 1 and 0.2 μM, 48 hours; format: cell-based; settings: human, A549 tumor cells, 5 μM
measuredAttribute: viability at 48 h, 5 µM

# example entries with known answers
COc1ccc2c(Oc3cccc(-c4nnc(Nc5cccc(C(F)(F)F)c5)[nH]4)c3)ncnc2c1 [Compound 87]: > 70%
COc1ccc2c(Oc3cccc(-c4nnc(Nc5cccc(C(F)(F)F)c5)[nH]4)c3)cc(C)nc2c1 [Compound 194]: > 70%
Nc1cc(Oc2ccc(-c3nnc(Nc4cccc(C(F)(F)F)c4)o3)cc2)ncn1 [Compound 28]: > 70%
CSc1nc(N)cc(Oc2ccc(-c3nnc(Nc4cccc(C(C)(C)C#N)c4)[nH]3)cc2)n1 [Compound 131]: < 50%

Report viability at 48 h, 5 µM for each item below.
1. Nc1nccc(Oc2ccc(-c3nnc(Nc4cccc(C(F)(F)F)c4)o3)cc2)n1 [Compound 27]
2. NS(=O)(=O)c1cnccc1Oc1cccc(-c2nnc(Nc3cccc(C(F)(F)F)c3)o2)c1 [Compound 39]
3. FC(F)(F)Oc1ccc2c(Oc3cccc(-c4nnc(Nc5cccc(C(F)(F)F)c5)[nH]4)c3)ccnc2c1 [Compound 173]
4. FC(F)(F)c1cccc(Nc2nnc(-c3cccc(Oc4ccncc4C(F)(F)F)c3)[nH]2)c1 [Compound 20]
5. CSc1nc(N)cc(Oc2ccc(-c3nnc(Nc4cccc(OC(C)C)c4)[nH]3)cc2)n1 [Compound 134]
6. CSc1nc(N)cc(Oc2ccc(-c3nnc(Nc4ccc(C#N)cc4)[nH]3)cc2)n1 [Compound 127]

1. 50 to 70%
2. > 70%
3. > 70%
4. 50 to 70%
5. < 50%
6. 50 to 70%

Report viability at 48 h, 5 µM for each item below.
1. COc1ccc2c(Oc3ccc(-c4nnc(Nc5cccc(C(F)(F)F)c5)[nH]4)cc3)ccnc2c1 [Compound 11]
2. NCCSc1nc(N)cc(Oc2ccc(-c3nnc(Nc4cccc(C(F)(F)F)c4)[nH]3)cc2)n1 [Compound 62]
3. Nc1cc(Oc2cccc(-c3nnc(Nc4cccc(C(F)(F)F)c4)o3)c2)nc(N)n1 [Compound 35]

1. 50 to 70%
2. > 70%
3. > 70%

Report viability at 48 h, 5 µM for each item below.
1. COc1cc(-c2nnc(Nc3cccc(C(F)(F)F)c3)[nH]2)ccc1Oc1cc(N)nc(SC)n1 [Compound 109]
2. CSc1nc(N)cc(Oc2cc(-c3nnc(Nc4cccc(C(F)(F)F)c4)[nH]3)ccc2C)n1 [Compound 179]
3. CSc1nc(N)cc(Oc2ccc(-c3nnc(Nc4cccc(C(F)(F)F)c4)o3)cc2)n1 [Compound 25]
4. CC(C)(C)Sc1nc(N)cc(Oc2cccc(-c3nnc(Nc4cccc(C(F)(F)F)c4)[nH]3)c2)n1 [Compound 98]
5. CSc1nc(N)cc(Oc2ccc(-c3nnc(Nc4cccc(C(F)(F)F)c4F)[nH]3)cc2)n1 [Compound 137]
6. FC(F)(F)c1cccc(Nc2nnc(-c3ccc(Oc4ccnc5ccccc45)cc3)s2)c1 [Compound 47]

1. < 50%
2. 50 to 70%
3. < 50%
4. > 70%
5. < 50%
6. > 70%

Report viability at 48 h, 5 µM for each item below.
1. FC(F)(F)c1cccc(Nc2nnc(-c3cccc(Oc4ccnc5cc(Cl)ccc45)c3)[nH]2)c1 [Compound 167]
2. FC(F)(F)c1cccc(Nc2nnc(-c3ccc(Oc4ccnc5cc(Cl)ccc45)cc3)[nH]2)c1 [Compound 150]

1. > 70%
2. > 70%

Report viability at 48 h, 5 µM for each item below.
1. Cc1ccc(-c2nnc(Nc3cccc(C(F)(F)F)c3)[nH]2)cc1Oc1cccnc1 [Compound 177]
2. CC(C)(C)Sc1cc(Oc2cccc(-c3nnc(Nc4cccc(C(F)(F)F)c4)[nH]3)c2)nc(N)n1 [Compound 151]
3. CSc1nc(N)cc(Oc2ccc(-c3nnc(Nc4cccc(C)c4)[nH]3)cc2)n1 [Compound 65]
4. COc1ccc2c(Oc3ccc(-c4nnc(Nc5cccc(C(F)(F)F)c5)[nH]4)cc3)ncnc2c1 [Compound 70]
5. COCCOc1nc(N)cc(Oc2cccc(-c3nnc(Nc4cccc(C(F)(F)F)c4)[nH]3)c2)n1 [Compound 96]

> 70%
> 70%
50 to 70%
< 50%
> 70%

Report viability at 48 h, 5 µM for each item below.
1. O=c1cc(COc2cccc(-c3nnc(Nc4cccc(C(F)(F)F)c4)[nH]3)c2)c2ccccc2[nH]1 [Compound 171]
2. NS(=O)(=O)c1cnccc1Oc1ccc(-c2nnc(Nc3cccc(C(F)(F)F)c3)o2)cc1 [Compound 31]
3. CNc1cc(Oc2ccc(-c3nnc(Nc4cccc(C(F)(F)F)c4)[nH]3)cc2)nc(SC)n1 [Compound 118]

["> 70%", "> 70%", "> 70%"]

Report viability at 48 h, 5 µM for each item below.
1. COCCCNc1cc(Oc2ccc(-c3nnc(Nc4cccc(C(F)(F)F)c4)[nH]3)cc2)nc(SC)n1 [Compound 145]
2. FC(F)(F)c1cccc(Nc2nnc(-c3ccc(Oc4nccc(Cl)n4)cc3)o2)c1 [Compound 26]

["< 50%", "> 70%"]
